# Test system: RIVA
# assay.explanation: growth inhibition by drug alone (1 - RLU/untreated control) (fraction); higher = stronger inhibition
# condition.summary: 10 nM; time (day): 5; 177Lu-lilotomab satetraxetan 0 ug/ml
property.label: growth inhibition by drug alone

O=C(Oc1ccc([N+](=O)[O-])cc1)N1CCC(C(O)(c2ccc3c(c2)OCO3)c2ccc3c(c2)OCO3)CC1; -0.0874
Cn1cc(C2=C(c3cn(C4CCN(Cc5ccccn5)CC4)c4ccccc34)C(=O)NC2=O)c2ccccc21; -0.236
CC(O)(CS(=O)(=O)c1ccc(F)cc1)C(=O)Nc1ccc(C#N)c(C(F)(F)F)c1 (stereo not given) [Bicalutamide (Casodex)]; -0.0376
CC(=O)Nc1ccc(OC[C@](C)(O)C(=O)Nc2ccc([N+](=O)[O-])c(C(F)(F)F)c2)cc1; -0.271
CCC1(c2ccc(N)cc2)CCC(=O)NC1=O (stereo not given) [Aminoglutethimide (Cytadren)]; -0.237

* * *

# Tested on: U-2932
# assay.explanation: growth inhibition by drug plus 177Lu-lilotomab satetraxetan (1 - RLU/untreated control) (fraction); higher = stronger inhibition
# condition.summary: 10 nM; time (day): 3; 177Lu-lilotomab satetraxetan 1 ug/ml
Please note: 1 (yes) applies when growth inhibition by drug plus 177Lu-lilotomab satetraxetan is -0.005 or greater, and 0 (no) applies otherwise.

N[C@@H](Cc1ccc(N(CCCl)CCCl)cc1)C(=O)O; 1 (yes)
Cn1cc(C2=C(c3cn(C4CCN(Cc5ccccn5)CC4)c4ccccc34)C(=O)NC2=O)c2ccccc21; 0 (no)
CC[C@@H](C(=O)[C@@H](C)[C@@H](O)[C@H](C)[C@@H]1O[C@@H]([C@@H](CC)C(=O)O)CC[C@@H]1C)[C@H]1O[C@]2(C=C[C@@H](O)[C@]3(CC[C@@](C)([C@H]4CC[C@](O)(CC)[C@H](C)O4)O3)O2)[C@H](C)C[C@@H]1C; 1 (yes)
Cc1ccccc1-n1c(Cn2cnc3c(N)ncnc32)nc2cccc(C)c2c1=O; 0 (no)
CC1=C2C[C@H]3[C@@H](CC=C4C[C@@H](O)CC[C@@]43C)[C@@H]2CC[C@]12O[C@@H]1C[C@H](C)CN[C@H]1[C@H]2C; 1 (yes)
C[C@]12CCC(=O)C(O)=C1CC[C@@H]1[C@@H]2CC[C@]2(C)C(=O)CC[C@@H]12; 0 (no)
CC(=O)Nc1ccc(OC[C@](C)(O)C(=O)Nc2ccc([N+](=O)[O-])c(C(F)(F)F)c2)cc1; 1 (yes)

* * *

# System: U-2932
# assay.explanation: growth inhibition by drug plus 177Lu-lilotomab satetraxetan (1 - RLU/untreated control) (fraction); higher = stronger inhibition
# condition.summary: 10 nM; time (day): 6; 177Lu-lilotomab satetraxetan 1 ug/ml
Tag: Criterion met if measured growth inhibition by drug plus 177Lu-lilotomab satetraxetan is not below 0.1, Criterion not met if it is.

CC1=C2C[C@H]3[C@@H](CC=C4C[C@@H](O)CC[C@@]43C)[C@@H]2CC[C@]12O[C@@H]1C[C@H](C)CN[C@H]1[C@H]2C; Criterion met
CC(C)[C@]12O[C@H]1[C@@H]1O[C@]13[C@]1(O[C@H]1C[C@H]1C4=C(CC[C@@]13C)C(=O)OC4)[C@@H]2O [Triptolide]; Criterion met
CCC1(c2ccc(N)cc2)CCC(=O)NC1=O (stereo not given) [Aminoglutethimide (Cytadren)]; Criterion not met
CN(C)CCN(C)CCc1ccc(Cl)c(Cl)c1; Criterion not met
Cc1cc2c(C(C)C)c(O)c(O)c(C=O)c2c(O)c1-c1c(C)cc2c(C(C)C)c(O)c(O)c(C=O)c2c1O; Criterion not met
N[C@@H](Cc1ccc(N(CCCl)CCCl)cc1)C(=O)O; Criterion met
Cn1cc(C2=C(c3cn(C4CCN(Cc5ccccn5)CC4)c4ccccc34)C(=O)NC2=O)c2ccccc21; Criterion met
O=P1(N(CCCl)CCCl)NCCCO1 (stereo not given) [Cyclophosphamide monohydrate]; Criterion met
O=C(Oc1ccc([N+](=O)[O-])cc1)N1CCC(C(O)(c2ccc3c(c2)OCO3)c2ccc3c(c2)OCO3)CC1; Criterion met
O=C(O)c1nn(Cc2ccc(Cl)cc2Cl)c2ccccc12; Criterion met

All figures here come from the supplement of paper PMC6897291.
